Target: recombinant human oxytocin receptors (Homo sapiens, UniProt P30559)
Construct: expressed in transfected cells; host or cells: HEK-293, transient expression; lysed and homogenized cells
Sequence (P30559 whole entry): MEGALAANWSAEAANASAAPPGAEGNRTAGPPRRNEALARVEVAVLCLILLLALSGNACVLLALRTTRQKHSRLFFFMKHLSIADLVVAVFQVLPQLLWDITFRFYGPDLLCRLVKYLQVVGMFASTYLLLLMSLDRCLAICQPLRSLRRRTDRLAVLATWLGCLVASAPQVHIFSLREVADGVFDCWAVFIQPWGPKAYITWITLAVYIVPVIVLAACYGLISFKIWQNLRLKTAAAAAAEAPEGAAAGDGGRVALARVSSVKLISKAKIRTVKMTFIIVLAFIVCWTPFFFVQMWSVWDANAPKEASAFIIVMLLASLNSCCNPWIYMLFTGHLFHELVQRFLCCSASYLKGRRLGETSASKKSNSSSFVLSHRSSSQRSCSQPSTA
Assay: Oxytocin receptor binding assay (3H-oxytocin, HEK-293 cells)
Conditions: selectivity quotient, human OT vs human V1b
Protocol: The residue was taken up in ice-cold lysis buffer (50 mM Tris-HCl, 10% glycerol, pH 7.4 and Roche complete protease inhibitor) and subjected to an osmotic shock at 4° C. for 20 minutes. […] On the day of the experiment, the cells were thawed, diluted with incubation buffer and homogenized using a Multipette Combitip (Eppendorf, Hamburg). […] The bound radioactivity was determined by liquid scintillation measurement in a Tricarb Beta counter, model 2000 or 2200CA (Packard).
test.readout: Ki(h-OT)/Ki(h-V1b)*

- compound: "CCOc1ncccc1C1(NC(=O)c2ccc(N3CCN(CC)CC3)cc2)C(=O)N(S(=O)(=O)c2ccc(OC)cc2)c2ccc(C#N)cc21 (stereo not drawn)"
  test.readout: "Ki(h-OT)/Ki(h-V1b)*"
  recorded.value: "+++ (>75)"
- compound: "CCOc1ncccc1C1(OC(=O)c2ccc(N3CCN(C)CC3)cc2)C(=O)N(S(=O)(=O)c2ccc(OC)cc2)c2ccc(C#N)cc21 (stereo not drawn)"
  test.readout: "Ki(h-OT)/Ki(h-V1b)*"
  recorded.value: "++ (25-75)"
- compound: "CCOc1ncccc1C1(Nc2ccc(N3CCN(C)CC3)cc2)C(=O)N(S(=O)(=O)c2ccc(OC)cc2)c2cc(F)c(C#N)cc21 (stereo not drawn)"
  test.readout: "Ki(h-OT)/Ki(h-V1b)*"
  recorded.value: "+++ (>75)"
- compound: "CCOc1ncccc1C1(NC(=O)c2ccc(N3CCN(CC)CC3)cc2)C(=O)N(S(=O)(=O)c2ccc(OC)cc2OC)c2ccc(C#N)cc21 (stereo not drawn)"
  test.readout: "Ki(h-OT)/Ki(h-V1b)*"
  recorded.value: "++ (25-75)"

Request: Could you share which Ki(h-OT)/Ki(h-V1b)* value was measured for CCOc1ncccc1C1(NCc2ccc(N3CCN(C)CC3)cc2)C(=O)N(S(=O)(=O)c2ccc(OC)cc2)c2ccc(F)cc21 (stereo not drawn) ?
Result: +++ (>75)

Measured values drawn from patent US8629148B2 for this set.
